Entry source: PubChem BioAssay (NCI)

Below: a set of entries, each annotated with reported TGI.
Test system: SNB-19 CNS
Test: NCI tumour cell line growth inhibition, 48 h

# annotated cases, reported TGI shown
compound=CC(C)(C)c1cc(C[P+](c2ccccc2)(c2ccccc2)c2ccccc2)cc(C(C)(C)C)c1O readout_label=TGI reported_value="13.8 µM"
compound=Brc1ccc(-c2[nH]c3ccccc3c2/C=N\Nc2ccc(-c3nc4ccccc4[nH]3)cc2)cc1 readout_label=TGI reported_value="> 100 µM"
compound="CC1(C)/C(=N\\O)C2(OS(=O)(=O)C(F)(F)F)CCC1C2 (stereo unspecified)" readout_label=TGI reported_value="> 100 µM"
compound=COc1cc(/C=N/NC(=O)c2c(Cl)c(Cl)c(Cl)c(Cl)c2-c2nc3ccc(C(=O)c4ccccc4)cc3[nH]2)ccc1O readout_label=TGI reported_value="> 100 µM"
compound=Cn1cnc([N+](=O)[O-])c1Sc1n[nH]c(-c2ccc(Cl)cc2)n1 readout_label=TGI reported_value="51 µM"
compound="Cc1ccc(NC(=O)C2C3C=CC(O3)C2C(=O)O)cc1 (stereo unspecified)" readout_label=TGI reported_value="> 100 µM"
compound=Cn1c(-c2ccccc2)cc(-c2ccc3c(c2)OCO3)c1-c1ccsc1 readout_label=TGI reported_value="> 100 µM"
compound="NC(=O)c1cn(C2CC(O)C(CO)O2)c2ncnc(N)c12 (stereo unspecified)" readout_label=TGI reported_value="45.5 µM"

Ask: // Input: COc1cccc(C2=NC(C(C)C)CO2)c1OC (stereo unspecified) . Output its TGI only.
Reply: > 100 µM

Ask: Fill in TGI for record O=C1c2ccccc2CC12Cc1cc3c(cc1C2)CCC3
Reply: > 100 µM

Ask: Specify measured TGI for Cc1ccc(-c2cc(C(=O)Nc3ccc(S(=O)(=O)N4CCCCC4)cc3)[nH]n2)c(O)c1 .
Reply: > 100 µM

Ask: Given O=S1Nc2cccc(C(F)(F)F)c2S1 (stereo unspecified) , respond with its TGI.
Reply: > 100 µM

Ask: For the compound C[C@@H]1CC[C@@]2(C)OC(c3ccccc3)[C@H](CO)N2C1=O (stereo partly specified) , give its reported TGI.
Reply: > 100 µM

Ask: Specify measured TGI for Cc1cc(C)c(/C=C2\C(=O)Nc3ccccc32)[nH]1 .
Reply: > 100 µM

Ask: Fill in reported TGI for this entry: CCOc1ccc(-c2nc3ccc(-c4nc5ccc(N6CCN(C)CC6)cc5[nH]4)cc3[nH]2)cc1
Reply: 1.73 µM

----------
Test system: A498 renal
Experiment: NCI tumour cell line growth inhibition, 48 h
Measured TGI accompanies every entry in the list below.
The reply should contain only the number, in µM.

Record excerpt, results attached:
smiles_notation=FC(F)(F)c1ccc2c(-c3cc[nH]c3)ccnc2c1 reported_value=51.8
smiles_notation=COc1cc(OC)c(C(=O)/C=C/c2ccc(C#N)cc2)c(OC)c1 reported_value=3.95

Ask: Item C=C(CN(C)C)C(=O)c1ccccc1OC : provide TGI
Reply: 64

----------
Some compounds, each annotated with its measured TGI.
Test system: HOP-92 NSCLC
Assay: NCI tumour cell line growth inhibition, 48 h

Here's what some known entries look like.
compound=COCN1C(=O)[C@@H]2C[C@@H](O)CN2C(=O)c2ccccc21 reported_value="> 100 µM"
compound=N#Cc1c(N)nc2c(c1-c1ccc(Cl)cc1)COc1ccc(F)cc1-2 reported_value="> 100 µM"
compound="CCOC(=O)C1CCCc2sc(N)c(C#N)c21 (stereo unspecified)" reported_value="> 100 µM"
compound=O=C1CN=C(c2ccc[nH]2)c2cc(Cl)ccc2N1 reported_value="> 100 µM"
compound=O=C1/C(=C/c2ccccc2Cl)COc2ccc(Br)cc21 reported_value="> 100 µM"
compound=COc1cc(-n2cc(-c3ccc(Cl)cc3)n(-c3ccccc3)c2=O)cc(OC)c1OC reported_value="> 100 µM"
compound=Clc1cc(Br)ccc1-c1ccc(CNCC2CCNCC2)o1 reported_value="4.9 µM"
compound=O=C1Nc2cccc(Cl)c2/C1=C\c1cccnc1 reported_value="68 µM"

Ask: State, in one line, measured TGI of Cc1cc(C)n(-c2nc(-n3nc(C)cc3C)nc(-n3nc(C)cc3C)n2)n1
Reply: > 100 µM

Ask: Name the recorded TGI of the item CCOC(=O)c1c(CN2CCNCC2)nc2ccc(Cl)cc2c1-c1ccccc1 in your answer.
Reply: 3.16 µM

Ask: Please supply the value of reported TGI for the item CCNCC(=O)Nc1ccc2c(c1)C(=O)c1ccc(NC(=O)CNCC)cc1C2=O
Reply: 12.5 µM

Ask: Provide only the value of recorded TGI for COc1cc(/C=C2\CCC(C)C3=C2N=c2s/c(=C/c4ccc(Cl)cc4)c(=O)n2C3c2cc(OC)c(OC)c(OC)c2)cc(OC)c1OC (stereo unspecified)
Reply: > 100 µM

Ask: Fill in TGI for record Cc1ccc(S(=O)(=O)N(CCN)c2cc3c4c(c2)Oc2cccc5c2C4c2c(cccc2O3)O5)cc1
Reply: 70.8 µM

Ask: Dear colleague, please send me the reported TGI for CCOc1ccc(N(CC(=O)N2CC(=O)Nc3cc(C)c(C)cc32)C(C)=O)cc1 when you can.
Reply: > 100 µM

Ask: Please supply the value of reported TGI for the item c1cc[c]([Ge]([O]c2cccc3cccnc23)([c]2ccccc2)[c]2ccccc2)cc1
Reply: 25.5 µM

Ask: Read the entry COc1ccc(Sc2[nH]c(C=O)c3ccccc23)cc1 and write its reported TGI.
Reply: 21 µM
